- System: PvIESI-1 RRM domain (Plasmodium vivax PVP01_0939900 aa 896-1203, GST fusion)
- protocol.description: RBNS R-value (6-mer enrichment in protein-bound RNA vs input library) (ratio); higher = stronger binding preference; the methods of the paper give 50 / 100 / 500 nM protein instead
- assay.context: protein concentration: 500 nM
readout: RBNS R-value
Just the number, please.

Query block: # return recorded RBNS R-value for input AAUGAU
Result block: 3.89

Query block: Respond only with RBNS R-value recorded for UGAUAG
Result block: 3.35

Query block: Identify measured RBNS R-value associated with GAUUGC
Result block: 2.33

Query block: Read off the recorded RBNS R-value for GUUGAU
Result block: 2.98

Query block: Give the reported RBNS R-value for this sequence. GAUGAU
Result block: 4.13

Query block: Give recorded RBNS R-value. CCCGAG
Result block: 1.72

Query block: Fill in RBNS R-value for record GAUUGA
Result block: 2.42

Query block: State its RBNS R-value: AUGAUA
Result block: 3.49

Query block: Identify measured RBNS R-value associated with GAUGAG
Result block: 2.49

Query block: Give RBNS R-value for the following sequence: CUGAUG
Result block: 4.34

Query block: Specify reported RBNS R-value for the sequence shown: CCUGAU
Result block: 3.36

Query block: Read the entry UGAUAU and write its reported RBNS R-value.
Result block: 2.79

Query block: Provide only the value of recorded RBNS R-value for GAUUUG
Result block: 2.87

Query block: Determine from records and report RBNS R-value for UGAUGG
Result block: 4.11

Query block: Specify RBNS R-value for CACCCG and stop.
Result block: 1.76

Query block: Consider the sequence UGAUAC and give its recorded RBNS R-value.
Result block: 2.83

Query block: Provide measured RBNS R-value value, entry: GAUGGG
Result block: 2.1

Query block: Specify measured RBNS R-value for GACACC .
Result block: 1.66

Query block: Check the records and state RBNS R-value for AUUGAU
Result block: 3.72

Query block: Quickly give me recorded RBNS R-value for GAUGAA
Result block: 2.89

Query block: Answer with reported RBNS R-value of CCUUGA
Result block: 1.88

Query block: Determine its reported RBNS R-value: UUGAUA
Result block: 3.36

Query block: Output measured RBNS R-value for this item: AUGAUU
Result block: 4.79

Query block: Could you please provide reported RBNS R-value for GCUGAU ? Thanks!
Result block: 2.82

Query block: Supply RBNS R-value value. Item: UCUGAU
Result block: 3.21

Query block: Read the entry CAUGAU and write its reported RBNS R-value.
Result block: 3.87

Query block: Give me measured RBNS R-value, please, for this sequence: CUGAUU
Result block: 4.11

Query block: Dear colleague, please send me the reported RBNS R-value for GAUGUG when you can.
Result block: 2.53

Query block: Return the recorded RBNS R-value value; entry: UGUGAU
Result block: 2.8

Query block: Specify reported RBNS R-value for the sequence shown: GUGAUU
Result block: 3.22

Query block: Return reported RBNS R-value. Input sequence: CUGAUA
Result block: 2.81

Query block: Consider the sequence GAUGAC . State its measured RBNS R-value.
Result block: 2.67

Query block: Supply reported RBNS R-value belonging to this sequence: GUGAUG
Result block: 3.57

Query block: Specify RBNS R-value for UGAUCU and stop.
Result block: 2.15

Query block: # return recorded RBNS R-value for entry GUGAUA
Result block: 2.34

Query block: // fetch RBNS R-value given entry GAUUUU
Result block: 2.64

Query block: Quote RBNS R-value reported for AGUGAU please.
Result block: 2.69

Query block: For the sequence GAUGCC , report RBNS R-value.
Result block: 2.11

Query block: Assign RBNS R-value to the following record: CGUGAU
Result block: 2.54

Origin of the recorded values: the supplement of paper PMC13392028
